target: human delta-like ligand 3 (DLL3) on SHP77 cells (human) (UniProt Q9NYJ7); experiment: FACS on SHP77 cells
Sequence (Q9NYJ7 27-618, stated change not applied): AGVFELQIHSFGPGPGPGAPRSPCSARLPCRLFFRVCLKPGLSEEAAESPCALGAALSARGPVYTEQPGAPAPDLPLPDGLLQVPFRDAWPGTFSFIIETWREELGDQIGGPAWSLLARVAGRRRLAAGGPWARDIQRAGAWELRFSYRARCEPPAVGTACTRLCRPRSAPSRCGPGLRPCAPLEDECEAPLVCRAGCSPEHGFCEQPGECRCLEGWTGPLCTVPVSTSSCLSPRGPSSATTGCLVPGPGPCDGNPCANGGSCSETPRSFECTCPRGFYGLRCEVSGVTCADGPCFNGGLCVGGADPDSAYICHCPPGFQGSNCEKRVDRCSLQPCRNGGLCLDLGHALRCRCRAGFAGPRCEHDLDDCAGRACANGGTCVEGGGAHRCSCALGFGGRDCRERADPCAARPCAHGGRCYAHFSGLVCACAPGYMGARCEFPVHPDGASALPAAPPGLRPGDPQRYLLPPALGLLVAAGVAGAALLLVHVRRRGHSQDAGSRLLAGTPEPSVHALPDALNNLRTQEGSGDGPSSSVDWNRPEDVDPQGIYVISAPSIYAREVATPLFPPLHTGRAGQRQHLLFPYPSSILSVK
measuredProperty: MFI at 0.032 nM (MFI)

1) Hab015VL4VH1a-hFc (scFv, part only; not given: scFv linker and human IgG1 Fc, V domains shown, not shown: another chain or arm of the molecule; a dimerising Fc or GST; small tags and cut ends) VL: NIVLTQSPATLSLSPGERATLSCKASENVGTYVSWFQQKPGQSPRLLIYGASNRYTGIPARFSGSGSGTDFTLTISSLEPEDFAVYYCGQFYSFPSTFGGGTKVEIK VH: EVQLVESGGGLVKPGGSLRLSCAASGITFSNFWMNWVRQAPGKGLEWVGQIRLKSDDYATHYAESVKGRFTISREDSKNTVYLQMNSLKTEDTAVYYCTTGYYFDYWGQGTTVTVSS	174
2) Hab008L1H5-hFc (scFv, part only; not given: VL-VH linker and human IgG1 Fc, V domains shown, not shown: another chain or arm of the molecule; a dimerising Fc or GST; small tags and cut ends) VL: DIQMTQSPSSLSASVGDRVTITCKASQNVGTAVAWYQQKPGKSPKLLIFSASIRYTGVPSRFSGSGSGTDFTLTISSLQPEDFATYYCQQYSSSPYTFGGGTKVEIK VH: EVQLVQSGAEVKKPGASVKVSCKASGYTFTDYYMNWVRRAPGQRLEWMGIINPYNGGTSYNQKFRGRVTITVDKSASTAYMELSSLRSEDTAVYYCSRYDYDYDVEGAMDYWGQGTTVTVSS	123
3) Hab008L3H5-hFc (scFv, part only; not given: scFv linker and human IgG1 Fc, V domains shown, not shown: another chain or arm of the molecule; a dimerising Fc or GST; small tags and cut ends) VL: DIVMTQSPDSLAVSLGERATINCKASQNVGTAVAWYQQKPGQSPKLLIFSASIRYTGVPDRFSGSGSGTDFTLTISSLQAEDVAVYYCQQYSSSPYTFGGGTKVEIK VH: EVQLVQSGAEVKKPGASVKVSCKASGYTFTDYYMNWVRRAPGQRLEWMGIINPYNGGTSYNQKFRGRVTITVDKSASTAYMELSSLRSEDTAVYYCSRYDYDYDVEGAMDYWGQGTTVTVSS	122
4) Hab009VL3aVH1-hFc (Fc fusion, part only; not given: Linker and human IgG1 Fc, not shown: a dimerising Fc or GST) scFv, part: DIVMTQSPLSLPVTPGEPASISCRASQTISDYLHWYLQKSHQSPQLLIKYASQSISGVPDRFSGSGSGTDFTLKISRVEAEDVGVYYCQQGHSFPLTFGQGTKLEIKEVQLVQSGAEVKKPGASVKVSCKASGYTFTSYWMHWVRQAPGQRLEWMGTIYPGNSDTRYNQKFKDRVTITADTSASTAYMELSSLRSEDTAVYYCTRSYDYGDLDYWGQGTTVTVSS	196
5) Hab013VL2VH2a-hFc (scFv, part only; not given: scFv linker and human IgG1 Fc, V domains shown, not shown: another chain or arm of the molecule; a dimerising Fc or GST; small tags and cut ends) VL: EIVLTQSPATLSLSPGERATLSCRASKSVSTSGFSYMHWYQQKPGQPPRLLIYLASNLESGIPARFSGSGSGTDFTLTISSLEPEDFAVYYCQHSRELPFTFGQGTKLEIK VH: EVQLVQSGAEVKKPGSSVKVSCKASGYAFSNYWINWVRQAPGQGLEWMGQINPGDGDTIYNSKFKGRVTITADKSTSTAYMELSSLRSEDTAVYYCEREGRNYGDFAYWGQGTTVTVSS	183
6) Hab009VL1aVH1-hFc (scFv, part only; not given: scFv linker and human IgG1 Fc, V domains shown, not shown: another chain or arm of the molecule; a dimerising Fc or GST; small tags and cut ends) VL: DIVMTQSPLSLPVTPGEPASISCRASQTISDYLHWYLQKPGQSPQLLIKYASQSISGVPDRFSGSGSGSDFTLKISRVEAEDVGVYYCQQGHSFPLTFGQGTKLEIK VH: EVQLVQSGAEVKKPGASVKVSCKASGYTFTSYWMHWVRQAPGQRLEWMGTIYPGNSDTRYNQKFKDRVTITADTSASTAYMELSSLRSEDTAVYYCTRSYDYGDLDYWGQGTTVTVSS	205
7) Hab015VL4VH5a-hFc (scFv, part only; not given: VL-VH linker and human IgG1 Fc, V domains shown, not shown: another chain or arm of the molecule; a dimerising Fc or GST; small tags and cut ends) VL: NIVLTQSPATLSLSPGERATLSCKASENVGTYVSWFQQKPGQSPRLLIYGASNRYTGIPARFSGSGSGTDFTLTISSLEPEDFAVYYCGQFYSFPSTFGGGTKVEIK VH: EVQLVESGGGLVKPGGSLRLSCVASGITFSNFWMNWVRQAPGKGLEWVGQIRLKSDDYATHYAESVKGRFTISREDSKNTVYLQMNSLKTEDTAVYYCTTGYYFDYWGQGTTVTVSS	179
8) Hab015VL5VH5a-hFc (scFv, part only; not given: scFv linker and human IgG1 Fc, V domains shown, not shown: another chain or arm of the molecule; a dimerising Fc or GST; small tags and cut ends) VL: NIQMTQSPSSLSASVGDRVTITCKASENVGTYVSWYQQKPGKSPKLLIYGASNRYTGVPSRFSGSGSGTDFTLTISSLQPEDFATYYCGQFYSFPSTFGGGTKVEIK VH: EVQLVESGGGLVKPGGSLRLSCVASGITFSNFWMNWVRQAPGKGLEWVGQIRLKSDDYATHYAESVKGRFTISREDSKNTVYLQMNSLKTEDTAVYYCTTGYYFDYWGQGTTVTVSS	189
9) Hab008L1H2a-hFc (scFv, part only; not given: VL-VH linker and human IgG1 Fc, V domains shown, not shown: another chain or arm of the molecule; a dimerising Fc or GST; small tags and cut ends) VL: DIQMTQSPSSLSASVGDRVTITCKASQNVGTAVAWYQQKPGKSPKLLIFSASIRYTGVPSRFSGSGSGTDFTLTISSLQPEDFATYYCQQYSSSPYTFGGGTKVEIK VH: EVQLVQSGAEVKKPGASVKVSCKASGYTFTDYYMNWVRQAPGQRLEWMGIINPYNSGTSYNQKFRGRVTLTVDKSASTAYMELSSLRSEDTAVYYCSRYDYDYDVEGAMDYWGQGTTVTVSS	126
10) Hab014VL3VH1-hFc (scFv, part only; not given: VL-VH linker and human IgG1 Fc, V domains shown, not shown: another chain or arm of the molecule; a dimerising Fc or GST; small tags and cut ends) VL: DIVMTQSPDSLAVSLGERATINCKASEDIYNRLAWYQQKPGQTPKLLISGATSLETGVPDRFSGSGSGKDFTLTISSLQAEDVAVYYCQQYWSLPWTFGGGTKVEIK VH: EVQLVQSGAEVKKPGASVKVSCKASGYTFTDYYMNWVRQAPGQRLEWMGDINPNHGDTGYNQKFTGRVTITVDKSASTAYMELSSLRSEDTAVYYCARNFFYYGTTYGWYFDVWGQGTTVTVSS	112

All values here come from patent EP4786492A1.
